Listed here: compounds with reported IC50 for HRV3C (Human rhinovirus 14, UniProt P03303).

>  <compound>
COC(=O)N[C@H](C(=O)N1C[C@@H]2[C@H]3C[C@@H]([C@@H]2[C@H]1C(=O)N[C@H](C#N)C[C@@H]1CCNC1=O)[C@H](F)C3)C(C)(C)C [Compound 2]

>  <IC50>
> 500 nM

$$$$
>  <compound>
COC(=O)N[C@H](C(=O)N1C[C@H]2[C@@H]([C@H]1C(=O)N[C@H](C#N)C[C@@H]1CCNC1=O)[C@H]1C=C[C@@H]2C1)C(C)(C)C [Compound 1]

>  <IC50>
> 500 nM

$$$$
>  <compound>
CC(C)(C)[C@H](NC(=O)OC1CC1)C(=O)N1C[C@@H]2[C@H]3C[C@@H]([C@@H]2[C@H]1C(=O)N[C@H](C#N)C[C@@H]1CCNC1=O)[C@H](F)C3 [Compound 3]

>  <IC50>
> 500 nM

$$$$

---

Target: SARS-Cov-2 3CLpro (Severe acute respiratory syndrome coronavirus 2)
Construct: 3CLpro and HRV3C was added using a Multidrop Combi
Test: SARS-Cov-2 3CLpro and HRV3C duplex assay (SAMDI-MS): 3CLpro
Assay type: biochemical
Settings: 30 mins preincubation
pIC50: −log10 of the molar value.
experimental readout: pIC50

>  <chem smiles>
CC(C)(C)[C@H](NC(=O)OC1CC1)C(=O)N1C[C@@H]2[C@H]3C[C@@H]([C@@H]2[C@H]1C(=O)N[C@H](C#N)C[C@@H]1CCNC1=O)[C@H](F)C3

>  <value measured>
> 7.70

$$$$
>  <chem smiles>
COC(=O)N[C@H](C(=O)N1C[C@H]2[C@@H]([C@H]1C(=O)N[C@H](C#N)C[C@@H]1CCNC1=O)[C@H]1C=C[C@@H]2C1)C(C)(C)C

>  <value measured>
> 7.70

$$$$
>  <chem smiles>
COC(=O)N[C@H](C(=O)N1C[C@@H]2[C@H]3C[C@@H]([C@@H]2[C@H]1C(=O)N[C@H](C#N)C[C@@H]1CCNC1=O)[C@H](F)C3)C(C)(C)C

>  <value measured>
> 7.70

$$$$

---

The listing below reports IC50 for molecules tested on human cathepsin L (Homo sapiens).
Sequence (P07711 114-333): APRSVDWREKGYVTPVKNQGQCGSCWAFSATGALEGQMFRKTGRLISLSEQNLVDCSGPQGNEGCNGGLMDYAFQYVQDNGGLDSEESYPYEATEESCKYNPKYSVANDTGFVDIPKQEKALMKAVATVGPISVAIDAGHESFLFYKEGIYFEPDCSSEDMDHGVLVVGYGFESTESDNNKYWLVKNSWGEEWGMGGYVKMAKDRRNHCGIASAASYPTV
experimental readout: IC50

>  <chem smiles>
CC(C)(C)[C@H](NC(=O)OC1CC1)C(=O)N1C[C@@H]2[C@H]3C[C@@H]([C@@H]2[C@H]1C(=O)N[C@H](C#N)C[C@@H]1CCNC1=O)[C@H](F)C3

>  <assay system>
human cathepsin L (Homo sapiens)

>  <value measured>
≥ 10 µM

$$$$
>  <chem smiles>
COC(=O)N[C@H](C(=O)N1C[C@@H]2[C@H]3C[C@@H]([C@@H]2[C@H]1C(=O)N[C@H](C#N)C[C@@H]1CCNC1=O)[C@H](F)C3)C(C)(C)C

>  <assay system>
human cathepsin L (Homo sapiens)

>  <value measured>
≥ 10 µM

$$$$
>  <chem smiles>
COC(=O)N[C@H](C(=O)N1C[C@H]2[C@@H]([C@H]1C(=O)N[C@H](C#N)C[C@@H]1CCNC1=O)[C@H]1C=C[C@@H]2C1)C(C)(C)C

>  <assay system>
human cathepsin L (Homo sapiens)

>  <value measured>
≥ 10 µM

$$$$

Reference source: patent US12630538B2
